In this section we review reported pIC50 values for a set of molecules.
Tested on: SKBR3 (PI3Kα-Wild Type) cell line
assay_protocol: HTRF phospho-AKT(S473) cell assay in SKBR3 cells
Type: cell-based, human
test_parameters: Homo sapiens, SK-BR-3; SKBR3 (PI3Kα-Wild Type) cells, HTRF phospho-AKT(S473), 2 hours compound incubation, PDGF-BB stimulated
pIC50: −log10 of the molar value.
endpoint_name: pIC50

• Cc1cc([C@@H](C)Nc2ccc(Cl)nc2C(=O)NS(C)(=O)=O)c2nc(-c3ccc(OC[C@@H]4CCN(C)CC4(F)F)nc3)n(C)c(=O)c2c1 [Compound 390] = ≤ 5.30
• Cc1cc([C@@H](C)Nc2ccc(Cl)nc2C(=O)NS(C)(=O)=O)c2nc(N3Cc4ccc(F)cc4C3)n(C)c(=O)c2c1 [Compound 1] = 5.30 to 6.00
• Cc1cc([C@@H](C)Nc2ccc(Cl)nc2C(=O)NS(C)(=O)=O)c2nc(N3CCC[C@H](c4cnn(C)c4)C3)n(C)c(=O)c2c1 (relative stereo) [Compound 194] = 5.30 to 6.00
• Cc1cc([C@@H](C)Nc2cccnc2C(=O)NS(C)(=O)=O)c2nc(N3Cc4ccc(F)cc4C3)n(C)c(=O)c2c1 [Compound 58] = 5.30 to 6.00
• Cc1cc([C@@H](C)Nc2ccc(Cl)nc2C(=O)NS(C)(=O)=O)c2nc(N3C[C@@H]4C[C@H]3CO4)n(C)c(=O)c2c1 [Compound 27] = 5.30 to 6.00
• Cc1cc([C@@H](C)Nc2ccc(Cl)nc2C(=O)NS(C)(=O)=O)c2nc(N3CCC[C@@H](c4ccc(C)nc4)C3)n(C)c(=O)c2c1 (mixture of isomers) [Compound 215] = 5.30 to 6.00

All values here come from patent US12281122B1.
